tested on: LOX IMVI melanoma; assay: NCI-60 one-dose screen, 48 h (100 = growth as untreated, 0 = no growth, -100 = all killed); details: 10 µM unless noted
The panel holds about 83,000 compounds, 20% with a hit somewhere; the sample as a whole holds those more often. The source made the active and inactive calls. The calls were made as follows: active = growth percent below 10; inactive = the rest.
Metric name: growth

Molecule	Assay value
COc1cccc(-c2cc(-c3cccs3)c(C#N)c(=O)[nH]2)c1	99.5% (inactive)
COc1cc(/C=C2\CN(C(=O)OC(C)(C)C)C/C(=C\c3ccc(O)c(OC)c3)C2=O)ccc1O	92.4% (inactive)
COc1ccc(Cl)cc1Nc1nc(C(F)(F)F)ccc1C(=O)NN	5.37% (active)
O=c1nc(-c2ccccc2)c2cc(-c3ccc(N4CCOCC4)cc3)ccc2[nH]1	74.5% (inactive)

Q. Quick check: growth of O=C(CSc1nc2c(n1Nc1ccccc1)-c1ccccc1SC2)Nc1nccs1 ?
A. 97.1% (inactive)

Q. Now give it for CCOC(=O)Cn1c(-c2nonc2NC(=O)c2ccccc2F)nc2ccccc21 too.
A. 10.3% (inactive)

Q. Now consider N/C(=N\O)c1ncc(-c2ccc(C(F)(F)F)cc2)c(NC2CCCCCC2)n1 and answer again.
A. -73.5% [100 µM] (active)

Q. Can you check Cc1nc(N)nc2c1CCC(Nc1ccccc1)S2 (stereo unspecified) next?
A. 97% (inactive)

Q. Here is the next molecule: COc1ccc(-c2cnc(-c3ccncc3-c3cccc(OC)c3)o2)cc1
A. 27.3% (inactive)

Q. Please answer likewise for NS(=O)(=O)c1ccc(CCn2c(SCC(=O)N/N=C/c3cc4ccccc4[nH]3)nc3ccccc3c2=O)cc1
A. 49.1% (inactive)

Q. Next entry: COc1ccc(-n2nc(C(=O)Nc3ccc(F)cc3)nc2-c2cc(OC)c(OC)c(OC)c2)cc1
A. 94.3% (inactive)

Q. Then what about the molecule COc1ccc(C2NC(=O)c3cc4c(cc3N2)OCO4)cc1 (stereo unspecified) ?
A. 39.9% (inactive)

###

test system: SK-MEL-28 melanoma; assay: NCI-60 one-dose screen, 48 h (100 = growth as untreated, 0 = no growth, -100 = all killed); conditions: 10 µM unless noted
The panel holds about 83,000 compounds, 20% with a hit somewhere; the sample as a whole holds those more often.
Tag: 1 if measured growth is not below 10%, 0 if it is.

>>> print(df.to_string())
                               given_smiles  discrete_label
0    CCCCCCCOc1cccc(/C=C2\N=C3SCCCN3C2=O)c1               1
1  O=c1c2cc(Cl)ccc2oc2ccc(OCCCCCN3CCCCC3)cc12               1
2  COc1ccccc1CNCCCN1C(=O)c2ccc3c4c(ccc(c24)C1=O)C(=O)N(CCCCNCCCN)C3=O               0
3  COc1ccc([C@H]2c3[nH]c4ccccc4c3C[C@H]3C(=O)N(CCCCCCC(=O)NO)CC(=O)N23)cc1               0
4  CCOC(=O)c1ccc2c(c1)[n+](=O)c(C(=O)c1ccc3ccccc3c1)c(C(F)(F)F)n2[O-]               0
5                            CCCCCCCCCCCCCC               1

Q. Please tell me: is the compound COc1cc(OC)cc(-c2ccc(-c3ccc(C(=N)N)s3)s2)c1 at or over 10% in terms of growth?
A. 0

###

test system: SF-295 CNS; assay: NCI-60 one-dose screen, 48 h (100 = growth as untreated, 0 = no growth, -100 = all killed); details: 10 µM unless noted
Compounds without any hit were thinned out: in the full panel of roughly 83,000, 20% have a hit.
Entry flag: Criterion met if growth reaches 90%; Criterion not met if it does not.

Would you please look over these solved cases?
>>> print(df.to_string())
                                   molecule     discrete_label
0      N=C(N)c1ccc(NCCNc2ccc(C(=N)N)cc2)cc1  Criterion not met
1                  N=c1nc(N2CCCCC2)cc(N)n1O      Criterion met
2  O=C1c2cccc3cccc(c23)C(=O)N1CCCCCCCCCCN1C(=O)c2cccc3cccc(c23)C1=O      Criterion met
3  O=C(CCl)Nc1cc(O)c2c(c1)C(=O)c1cccc(O)c1C2=O  Criterion not met
4              COc1ccccc1/C=C/C(=O)CCC(=O)O      Criterion met
5                OC(COCc1ccccc1)COCc1ccccc1      Criterion met
6         Cc1[nH]c2ccccc2c1C1=CC(=O)C=CC1=O      Criterion met
7               CCCCOC(=O)c1cc(O)c(O)c(O)c1      Criterion met
8                  COc1cccc(NC(=O)OC(C)C)c1      Criterion met
9  COc1cnc2c(c1)C(=O)c1c-2n(CCCN2CCNCC2)c(=O)c2cc(Cl)ccc12  Criterion not met

Q. Does growth meet or surpass 90% for O=c1c2cc(Br)cc(Br)c2nc(-c2ccc(Cl)cc2)n1/N=C\c1ccccc1F ?
A. Criterion not met

Q. Next record, please: Cc1ccc2c(C)c3c(ccc4ccccc43)c[n+]2c1
A. Criterion not met

Q. Moving on to Cc1ccc(NC(=O)c2cc(NCc3cc(O)ccc3O)ccc2O)cc1
A. Criterion met

Q. Next up: C=CCOc1ccc2c(C)cc(=O)oc2c1
A. Criterion met

Q. Try this molecule next: CCOCCNc1ccc(S(=O)(=O)c2ccc(N)cc2)cc1N
A. Criterion met

Q. Repeat for the following molecule: COCc1nc(NS(=O)(=O)c2ccc(N)cc2)nc(C)c1Br
A. Criterion met

Q. Another molecule to check: c1cc(C2CCCCC2)ccc1-c1cnc2nonc2n1
A. Criterion not met

###

tested on: NCI-H460 lung; assay: NCI-60 one-dose screen, 48 h (100 = growth as untreated, 0 = no growth, -100 = all killed); settings: 10 µM unless noted
This is part of a sample that, as a whole, favours compounds with a hit. Of some 83,000 tested, about 20% had one in any assay.
growth below 90% gives NO; growth at or above it gives YES.

Take a look at these entries with their results.
                                   compound  discrete_label
0  Cc1cc(-c2ccc(N=Nc3c(S(=O)(=O)O)cc4cc(S(=O)(=O)O)cc(O)c4c3O)c(C)c2)ccc1N=Nc1c(S(=O)(=O)O)cc2cc(S(=O)(=O)O)cc(O)c2c1O             YES
1   CCCCCCCC/C=C/CCCCCCCC1=NC(C)(C)CN1C(C)C              NO
2     COc1ccc2nc3ccccc3c(NCc3ccc(C)cc3)c2c1              NO
3  COc1cc(Nc2ncccc2/C=C/C(=O)c2cc(OC)c(OC)c(OC)c2)cc(OC)c1OC              NO
4  O=C1CCCN1C(O)CCN(Cc1ccccc1)Cc1ccc(Cl)cc1 (stereo unspecified)             YES
5  CC(C)CC(=O)C(CCc1ccccn1)C(C)C (stereo unspecified)             YES

Could you now look at the following compound, please?
Q. Exam item: decide whether the reported growth for COc1cccc(NC(=O)OC(C)C)c1 is at least 90%.
A. YES

###

tested on: SK-MEL-28 melanoma; assay: NCI-60 one-dose screen, 48 h; details: 10 µM unless noted
About 83,000 compounds went through this panel and 20% of them were active in at least one assay; those are over-represented in the sample as a whole. The source made the active and inactive calls. Rule for the calls: active = growth percent below 10; inactive = the rest.
Form entry, call: pick from 1 (yes) for active, 0 (no) for inactive

Molecule	Discrete label
CN1CCC2(CC1)N=C(SCC(=O)Nc1cnc3ccccc3c1)C(c1ccc(Br)cc1)=N2	1 (yes)
COc1cccc(NC(=O)OC(C)C)c1	0 (no)
COc1ccc2c(c1)C1=NN(C(=O)CO)[C@H](c3ccc(OC(F)(F)F)cc3)[C@@H]1CC2	0 (no)
N/N=C(\C(=N\N)c1ccccc1)c1ccccc1	0 (no)
COc1cc([N+](=O)[O-])cc(OC)c1OC	0 (no)

Q. In this assay, the call recorded for N/C(=C\C(=O)n1nc(-c2ccccc2)cc1N)c1ccccc1 was what?
A. 0 (no)

Q. // next record CSc1ccc(/C=C2\C=C(CC(=O)NCc3ccc(C(=O)c4ccccc4)cc3)c3cc(F)ccc32)cc1
A. 0 (no)

###

tested on: COLO 205 colon; assay: NCI-60 one-dose screen, 48 h; settings: 10 µM unless noted
Compounds without any hit were thinned out: in the full panel of roughly 83,000, 20% have a hit. Activity calls are given as the source filed them. How the source made its calls: active means growth percent below 10; inactive means the rest.
I would appreciate it if you answered using one of these outcomes: active, inactive

Q. Which result was noted for this molecule in the test: COc1ccc(-c2cnnn2-c2nonc2-n2cccc2)cc1
A. active
